IC50 listing for selected compounds.
- system.tested: Cytochrome P450 2D6 (Homo sapiens)
- Sequence (P10635 whole entry): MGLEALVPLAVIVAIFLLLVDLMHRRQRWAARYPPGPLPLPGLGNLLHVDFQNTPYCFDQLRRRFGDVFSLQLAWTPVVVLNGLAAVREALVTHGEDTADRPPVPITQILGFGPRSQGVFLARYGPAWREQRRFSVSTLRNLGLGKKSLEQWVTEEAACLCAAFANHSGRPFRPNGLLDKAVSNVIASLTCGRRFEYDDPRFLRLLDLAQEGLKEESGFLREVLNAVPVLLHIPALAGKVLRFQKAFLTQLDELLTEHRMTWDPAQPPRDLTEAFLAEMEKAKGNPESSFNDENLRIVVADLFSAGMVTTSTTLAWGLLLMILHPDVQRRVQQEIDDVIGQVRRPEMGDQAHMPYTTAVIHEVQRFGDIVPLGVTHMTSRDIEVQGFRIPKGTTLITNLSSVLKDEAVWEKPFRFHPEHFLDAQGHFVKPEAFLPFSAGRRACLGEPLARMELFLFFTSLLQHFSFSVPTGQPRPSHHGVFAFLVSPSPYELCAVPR
- experiment.notes: Inhibition of human liver microsome Cytochrome P450 2D6
- Assay type: ADME, microsomes
observed.property: IC50 (µM)

1) O=C(N[C@H]1c2ccccc2OC[C@H]1O)[C@H](Cc1ccncc1)C[C@H](O)CN1CCN(Cc2ccc(-c3ccccc3)o2)C[C@H]1C(=O)NCC(F)(F)F	14.9
2) O=C(N[C@H]1c2ccccc2OC[C@H]1O)[C@H](Cc1cccnc1)C[C@H](O)CN1CCN(Cc2cc3ccccc3o2)C[C@H]1C(=O)NCC(F)(F)F	19
3) O=C(N[C@H]1c2ccccc2OC[C@H]1O)[C@H](Cc1ccncc1)C[C@H](O)CN1CCN(Cc2cc3ccccc3o2)C[C@H]1C(=O)NCC(F)(F)F	3.6
4) O=C(N[C@H]1c2ccccc2OC[C@H]1O)[C@H](Cc1cccnc1)C[C@H](O)CN1CCN(Cc2ccc(-c3ccccc3)o2)C[C@H]1C(=O)NCC(F)(F)F	15.6

---

- system.tested: Cytochrome P450 3A4 (Homo sapiens, UniProt P08684)
- Sequence (P08684 whole entry): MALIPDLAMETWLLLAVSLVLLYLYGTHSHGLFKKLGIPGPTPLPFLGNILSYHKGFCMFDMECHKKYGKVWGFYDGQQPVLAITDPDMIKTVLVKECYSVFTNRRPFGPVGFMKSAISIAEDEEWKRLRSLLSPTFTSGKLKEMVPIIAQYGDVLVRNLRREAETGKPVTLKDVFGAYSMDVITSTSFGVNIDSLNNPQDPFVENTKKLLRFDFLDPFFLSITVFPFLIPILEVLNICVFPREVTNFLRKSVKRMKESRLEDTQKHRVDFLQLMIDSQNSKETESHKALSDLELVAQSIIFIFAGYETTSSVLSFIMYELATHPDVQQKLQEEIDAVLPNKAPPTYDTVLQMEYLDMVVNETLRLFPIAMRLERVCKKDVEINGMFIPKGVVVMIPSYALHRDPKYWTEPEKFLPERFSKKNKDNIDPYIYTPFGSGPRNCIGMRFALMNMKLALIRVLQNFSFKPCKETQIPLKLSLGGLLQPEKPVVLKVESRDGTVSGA
pIC50: −log10 of the molar value.
Output Criterion met for pIC50 not less than 6; output Criterion not met otherwise.

1. O=C(N[C@H]1c2ccccc2OC[C@H]1O)[C@H](Cc1cccnc1)C[C@H](O)CN1CCN(Cc2cc3cccc(Cl)c3o2)C[C@H]1C(=O)NCC(F)(F)F	Criterion met
2. O=C(N[C@H]1c2ccccc2OC[C@H]1O)[C@H](Cc1cccnc1)C[C@H](O)CN1CCN(Cc2cc3ccccc3o2)C[C@H]1C(=O)NCC(F)(F)F	Criterion met
3. O=C(N[C@H]1c2ccccc2OC[C@H]1O)[C@H](Cc1cccnc1)C[C@H](O)CN1CCN(Cc2ccc(-c3ccccc3)o2)C[C@H]1C(=O)NCC(F)(F)F	Criterion met
4. O=C(N[C@H]1c2ccccc2OC[C@H]1O)[C@H](Cc1ccncc1)C[C@H](O)CN1CCN(Cc2cc3ccccc3o2)C[C@H]1C(=O)NCC(F)(F)F	Criterion not met

---

- Tested on: MT4
- experiment.notes: Antiviral activity of compound against spread of wild type NL4-3 virus infection in MT-4 human T-lymphoid cells
- Assay type: functional
- test.context: read-out: CIC95
observed.property: IC95

1. O=C(N[C@H]1c2ccccc2OC[C@H]1O)[C@H](Cc1cccnc1)C[C@H](O)CN1CCN(Cc2ccc(-c3ccccc3)o2)C[C@H]1C(=O)NCC(F)(F)F	≤ 8 nM
2. O=C(N[C@H]1c2ccccc2OC[C@H]1O)[C@H](Cc1ccccc1)C[C@H](O)CN1CCN(Cc2ccc(-c3ccncc3)o2)C[C@H]1C(=O)NCC(F)(F)F	≤ 8 nM
3. O=C(N[C@H]1c2ccccc2OC[C@H]1O)[C@H](Cc1ccncc1)C[C@H](O)CN1CCN(Cc2cc3cccc(Cl)c3o2)C[C@H]1C(=O)NCC(F)(F)F	≤ 8 nM
